TESTED_TARGET: Carboxy-terminal domain RNA polymerase II polypeptide A small phosphatase 1 (Homo sapiens)
Sequence (Q9GZU7 whole entry): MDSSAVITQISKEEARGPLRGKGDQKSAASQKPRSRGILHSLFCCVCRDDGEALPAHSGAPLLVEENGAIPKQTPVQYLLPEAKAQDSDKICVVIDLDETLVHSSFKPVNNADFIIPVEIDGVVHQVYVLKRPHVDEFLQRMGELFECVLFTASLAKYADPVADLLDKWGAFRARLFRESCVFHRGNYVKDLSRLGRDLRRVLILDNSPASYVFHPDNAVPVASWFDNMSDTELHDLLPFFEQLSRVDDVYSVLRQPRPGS
ASSAY_TEXT: CTDSP1 inhibitors, concentration-response, biochemical, absorbance readout, ultra-high-throughput screen actives (AID 540297)
Format: functional
Activity calls are given as the source filed them. Rule as the data show it: actives have a measured IC50 and inactives only a lower limit.
MEASUREMENT_NAME: IC50

ENTRY_SMILES	RESULT
CCOC(=O)Cn1/c(=N/C(=O)c2sc3ccccc3c2Cl)sc2cc(S(N)(=O)=O)ccc21	2.06 µM (active)
Cc1ccc(-c2cc(C(=O)Nc3cccnc3)c3ccccc3n2)o1	9.9 µM (active)
O=C(Nc1ccc2oc(-c3ccccc3F)nc2c1)c1ccc([N+](=O)[O-])o1	1.23 µM (active)
NC(=O)COc1ccc(/C=N\NC(=O)c2ccc(-c3ccccc3)cc2)cc1	6.66 µM (active)
O=C(O)c1ccc(CSc2nc3ccc(NC(=O)c4ccccc4C(=O)O)cc3s2)cc1	6.66 µM (active)
